system: EKVX NSCLC; experiment: NCI tumour cell line growth inhibition, 48 h
recordedMetric: GI50

Recorded GI50, per entry:
CC(=O)[CH-]C(=O)c1ccccc1.CC(=O)[CH-]C(=O)c1ccccc1.[O-]c1ccc2c(c1)OCO2.[O-]c1ccc2c(c1)OCO2.[Ti+4] :: 25.8 µM
Cc1ccc(C(=O)NC2CC2)cc1-c1ccc2[nH]ncc2c1 :: > 25 µM
CC1(C)CCC[C@]2(C)c3ccccc3C(=O)CC12 (stereo partly specified) :: 42.9 µM
CCN(CC)CCCCNc1c2ccc(Cl)cc2nc2ccc(OC)cc12 :: 0.608 µM
C1=CCCC=CCC1.C[PH+](C)C.C[PH+](C)C.C[PH+](C)C.[Cl-].[Ir] :: 76.1 µM
COc1cc2nccc(Oc3ccc(NC(=O)c4cn(C(C)C)c(=O)n(-c5ccc(F)cc5)c4=O)cc3F)c2cc1OC :: > 30.1 µM

-- ask Need GI50, item C=C(C)[C@@H]1CC[C@]2(C(=O)NS(=O)(=O)c3ccccc3)CC[C@]3(C)[C@H](CC[C@@H]4[C@@]5(C)CC[C@H](OC(=O)NS(=O)(=O)c6ccccc6)C(C)(C)[C@@H]5CC[C@]43C)[C@@H]12
-- reply 3.17 µM

-- ask Need GI50, item CS(=O)(=O)N(c1cc(-c2ccc3ncnc(Nc4ccc(F)c(Cl)c4)c3c2)cnc1Cl)S(C)(=O)=O
-- reply 0.649 µM

-- ask Need GI50, item COc1cc(CNc2oc(-c3ccccc3)c(-c3ccccc3)c2C#N)cc(CN2CCN(C)CC2)c1O
-- reply 1.81 µM

-- ask Need GI50, item O=C([O-])CC(=O)[O-].[NH-][C@@H]1CCCC[C@H]1[NH-].[Pt+4]
-- reply > 100 µM

-- ask Need GI50, item C[N+](C)=c1ccc2nc3c(cc(NCCCNc4cc5oc6cc(=[N+](C)C)ccc-6nc5c5ccccc45)c4ccccc43)oc-2c1
-- reply 4.77 µM

----------
tested on: M14 melanoma; experiment: NCI tumour cell line growth inhibition, 48 h
recordedMetric: TGI

CCN(Cc1c(F)cccc1Cl)c1ccc(CO)c(Cl)c1 :: 35.9 µM

-- ask Need TGI, item CC(C)c1ccc(NC(=O)Cc2ccc(Nc3ncnc4cc(-c5cnn(CCN(C)C)c5)ccc34)cc2)cc1
-- reply 2.97 µM

-- ask Need TGI, item CCC1([N+](=O)[O-])CN(N=O)C1
-- reply > 100 µM

----------
tested on: K-562 leukemia; assay: NCI tumour cell line growth inhibition, 48 h
Measured TGI by item

Recorded TGI, per entry:
C=C(C)[C@H]1CC23C(=O)[C@@](C)(C[C@H]2C1(C)C)C(=O)C(C(=O)C(C)C)=C3O :: 49.3 µM
C[N+](C)=c1ccc2nc3c(cc(NCCCNc4cc5oc6cc(=[N+](C)C)ccc-6nc5c5ccccc45)c4ccccc43)oc-2c1 :: > 25.5 µM
OC(CC(O)(C(F)(F)Cl)C(F)(F)Cl)c1ccccc1 (configuration not stated) :: > 10 µM
COc1cc(CNc2oc(-c3ccccc3)c(-c3ccccc3)c2C#N)cc(CN2CCN(C)CC2)c1O :: 4.16 µM
Cc1cc(-c2cc(C(C)(C)C)c(O)c(C(C)(C)C)c2)c(C)cc1-c1cc(C(C)(C)C)c(O)c(C(C)(C)C)c1 :: > 100 µM
CN(C)CCNCCCNc1c2ccccc2nc2cccc([N+](=O)[O-])c12 :: < 0.0184 µM

API: the following record is the query input.
-- ask Need TGI, item CCC1([N+](=O)[O-])CN(N=O)C1
-- reply > 100 µM
